These measurements were taken from PubChem BioAssay (NCI).

assay_protocol: NCI Yeast Anticancer Drug Screen. Data for the rad50 strain (AID 155);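 also: 0% = growth of vehicle-only cultures of the same strain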
condition_label: S. cerevisiae rad50 strain growth inhibition; at 50.0 µM; hits give high values
About 79,000 compounds went through this panel and 15% of them were active in at least one assay; those are over-represented in the sample as a whole.
quantity_measured: growth inhibition (%)

# compound, recorded_number
data = [
    ("COC(=O)c1cncc(C(=O)OC)c1", -3.9),
    ("S=P(c1ccccc1)(c1ccccc1)C(P(c1ccccc1)c1ccccc1)P(c1ccccc1)c1ccccc1", 47.9),
    ("O=C1c2cc(Cl)ccc2OCC1Cl (stereo not given)", 37.5),
    ("COc1cc2cnc(-c3ccncc3)c(N)c2cc1OC", -0.75),
    ("OCC(O)C1OC(n2cnc3c(=S)nc[nH]c32)C(O)C1O (stereo not given)", 2.85),
    ("Cc1ccc(S(=O)(=O)NNCCC#N)cc1", -5),
    ("CCNc1ccc(-c2ccc(NCC)cc2)cc1", 31.6),
    ("Nc1nc(I)nc2c1ncn2C1OC(COS(N)(=O)=O)C(O)C1O (stereo not given)", 67),
    ("CC(C)NC(=O)c1ccc(CBr)cc1", 0.8),
    ("CCC1(CC)C(=O)N(C(=O)c2ccc(C)cc2)N(C(=O)c2ccc(C)cc2)C1=O", 3.65),
]
